Hello, the source for this data is the supplement of paper PMC10338343, in case you need it.

Test system: MIWI (PIWIL1) piRISC loaded with piRNA #1 (30 nt);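 note: 1 nM active piRISC with 0.1 nM target library at 33 °C single turnover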
measurement-description: pre-steady-state target cleavage rate (min^-1); higher = faster piRNA-guided slicing of the target
measurement-setup: guide: piRNA #1 5'p-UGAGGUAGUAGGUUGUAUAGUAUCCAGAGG; auxiliary factor: 500 nM mouse GTSF1
In all, about 6,200 sequences were measured (“pre-steady-state target cleavage rate”: median about 0.29, highest 2% from about 2 on). For the sample, the highest values were picked, then their nearest neighbours and some sequences at random.
Values of pre-steady-state target cleavage rate greater than or equal to 2 map to Fulfilled; values below map to Not fulfilled.

>  <sequence>
CCUCUGGAUACUAAACAACCUACAACCUCA

>  <category-label>
Not fulfilled

$$$$

Incoming: Test whether the sequence GGUCUGCGAUACUAUACAACCUACUACCUCA records pre-steady-state target cleavage rate of 2 or higher.
Outgoing: Not fulfilled

Incoming: Consider next the sequence GCUCUGGAUACUAAACAACCUACAACCUCA in the same way.
Outgoing: Not fulfilled

Incoming: Now give it for GGAGAGGAUACUAUACAACCUACUACCUUA too.
Outgoing: Not fulfilled

Incoming: Now give it for GGUCUGGAUACGAUACAACCUACUACCUCA too.
Outgoing: Not fulfilled

Incoming: Again, but for GGAGACCAUUCUUUACAACCUACUACCUCA
Outgoing: Not fulfilled

Incoming: Try the sequence GGUCUGGAUACUAUACUUCCUACUACCUCA
Outgoing: Not fulfilled

Incoming: Another sequence to look at: CCUCUGGAUACUAUUCAACCUACUACCACA
Outgoing: Fulfilled

Incoming: Moving on to the next sequence: CUCUGGAUACUAUACAACCUACUACCUCA
Outgoing: Fulfilled

###

System: MIWI (PIWIL1) piRISC loaded with piRNA #1 (30 nt);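 note: 1 nM active piRISC with 0.1 nM target library at 33 °C single turnover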
measurement-description: pre-steady-state target cleavage rate (min^-1); higher = faster piRNA-guided slicing of the target
measurement-setup: guide: piRNA #1 5'p-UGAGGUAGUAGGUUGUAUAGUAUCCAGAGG; auxiliary factor: 500 nM mouse GTSF1
Over roughly 6,200 sequences, “pre-steady-state target cleavage rate” has its median near 0.29; the highest 2% begin near 2. Shown is part of a subset that was picked to be rich in the highest values.
recorded-metric: pre-steady-state target cleavage rate
Answer with the value's number alone.

>  <sequence>
CCUCUGGAAACUAUUCAACCUACUACCUCA

>  <recorded-metric>
pre-steady-state target cleavage rate

>  <obs-value>
2.02

$$$$
>  <sequence>
GGUCAGGAUACUAAACAACCUACUACCUCA

>  <recorded-metric>
pre-steady-state target cleavage rate

>  <obs-value>
1.74

$$$$
>  <sequence>
CCUCUGGAUACUAUACAACCUACUAACCUCA

>  <recorded-metric>
pre-steady-state target cleavage rate

>  <obs-value>
2.09

$$$$
>  <sequence>
GGUCUGGUUACAAUACAACCUACUACCUCA

>  <recorded-metric>
pre-steady-state target cleavage rate

>  <obs-value>
1.59

$$$$
>  <sequence>
GGUCUCGAUACUAUACAACCUACUACCACA

>  <recorded-metric>
pre-steady-state target cleavage rate

>  <obs-value>
0.758

$$$$

Incoming: Recorded pre-steady-state target cleavage rate for GGAGAGGAUACGUAUACAACCUACUACCUCA , please?
Outgoing: 0.484

Incoming: Then what about the sequence GGAGACCAUACUAUACAACCUACCUACCUCA ?
Outgoing: 1.06

Incoming: Subsequent entry: CCUCAGGAUACUUUACAACCUACUACCUCA
Outgoing: 2.1

Incoming: What about GCUCUGCAUACUAUACAACCUACUACCUCA ?
Outgoing: 1.96

Incoming: What about this sequence? GGUCAGGAUACAAUACAACCUACUACCUCA
Outgoing: 1.69

Incoming: Now give it for GCUCUGGAAACUAUUCAACCUACUACCUCA too.
Outgoing: 1.68

Incoming: Consider next the sequence GCUCUGGUUUCUAUACAACCUACUACCUCA in the same way.
Outgoing: 2

Incoming: One more sequence: CCUCUCGAUACUAUACAACCUACUACCUCA
Outgoing: 2.01

Incoming: Request: GGAGACGAUACUAUACAACCUACUACGUGA
Outgoing: 0.348

###

Test system: MIWI (PIWIL1) piRISC loaded with piRNA #1 (30 nt);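 note: 1 nM active piRISC with 0.1 nM target library at 33 °C single turnover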
measurement-description: pre-steady-state target cleavage rate (min^-1); higher = faster piRNA-guided slicing of the target
measurement-setup: guide: piRNA #1 5'p-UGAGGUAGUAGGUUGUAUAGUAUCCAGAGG; auxiliary factor: 500 nM mouse GTSF1
The full ranking holds about 6,200 sequences; the median of “pre-steady-state target cleavage rate” is about 0.29, and the highest 2% start at about 2. The list comes from a sample in which the highest values are over-represented; it also holds close analogues and randomly drawn sequences.
Returns the class for an entry based on its pre-steady-state target cleavage rate. Class ranges: small value = under 1, mid value = from 1 up to 2, large value = 2 and over

Incoming: Just checking, what class would you give CCUCAGGAUUCUAUACAACCUACUACCUCA here?
Outgoing: large value

Incoming: Queued: CCUCUGGAUACUAUUACAACCUACUACCUCA
Outgoing: mid value

Incoming: Same lookup for GGACUGGAUACUAUACAACCUACUACCUCCA , please.
Outgoing: large value

###

System: MIWI (PIWIL1) piRISC loaded with piRNA #1 (30 nt);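 note: 1 nM active piRISC with 0.1 nM target library at 33 °C single turnover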
measurement-description: pre-steady-state target cleavage rate (min^-1); higher = faster piRNA-guided slicing of the target
measurement-setup: guide: piRNA #1 5'p-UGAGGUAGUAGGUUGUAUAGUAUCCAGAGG; auxiliary factor: 500 nM mouse GTSF1
Whole data set: some 6,200 sequences, median “pre-steady-state target cleavage rate” near 0.29, cut for the highest 2% near 2. For the sample, the highest values were picked, then their nearest neighbours and some sequences at random.
Please use true whenever pre-steady-state target cleavage rate is not below 0.7, and false whenever it is.

Examples with answers:
>  <sequence>
GGUCUGGAAACUAUACAACCAACUACCUCA

>  <system>
MIWI (PIWIL1) piRISC loaded with piRNA #1 (30 nt);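 note: 1 nM active piRISC with 0.1 nM target library at 33 °C single turnover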

>  <category-label>
false

$$$$
>  <sequence>
GGUCUGGAUACUAUACAACGUUCUACCUCA

>  <system>
MIWI (PIWIL1) piRISC loaded with piRNA #1 (30 nt);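 note: 1 nM active piRISC with 0.1 nM target library at 33 °C single turnover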

>  <category-label>
false

$$$$
>  <sequence>
GGACUGGAUACUAUACAACCUAGAACCUCA

>  <system>
MIWI (PIWIL1) piRISC loaded with piRNA #1 (30 nt);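 note: 1 nM active piRISC with 0.1 nM target library at 33 °C single turnover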

>  <category-label>
false

$$$$
>  <sequence>
GCUCUCGAUUCUAUACAACCUACUACCUCA

>  <system>
MIWI (PIWIL1) piRISC loaded with piRNA #1 (30 nt);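 note: 1 nM active piRISC with 0.1 nM target library at 33 °C single turnover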

>  <category-label>
true

$$$$
>  <sequence>
GGAGACCUAUCUAUACAACCUACUACACUCA

>  <system>
MIWI (PIWIL1) piRISC loaded with piRNA #1 (30 nt);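 note: 1 nM active piRISC with 0.1 nM target library at 33 °C single turnover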

>  <category-label>
false

$$$$
>  <sequence>
GGAGUGUGAUACUAUACAACCUACUACCUCA

>  <system>
MIWI (PIWIL1) piRISC loaded with piRNA #1 (30 nt);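 note: 1 nM active piRISC with 0.1 nM target library at 33 °C single turnover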

>  <category-label>
true

$$$$
>  <sequence>
GGAGAGUGAUACUAUACAACCUACUACCUCA

>  <system>
MIWI (PIWIL1) piRISC loaded with piRNA #1 (30 nt);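 note: 1 nM active piRISC with 0.1 nM target library at 33 °C single turnover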

>  <category-label>
true

$$$$
>  <sequence>
GGAGACCAUACUAUUCUACCUACUACCUCA

>  <system>
MIWI (PIWIL1) piRISC loaded with piRNA #1 (30 nt);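 note: 1 nM active piRISC with 0.1 nM target library at 33 °C single turnover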

>  <category-label>
false

$$$$

Incoming: Is it the case that GCUCUCGAUACUAUACAACCUACAACCUCA has pre-steady-state target cleavage rate reaching or exceeding 0.7?
Outgoing: true

Incoming: Param item: GCCUCUGGAUACUAUACAACCUACUACCUCA
Outgoing: true

Incoming: Would you kindly repeat that for GGAGAGGAUACUAUACAACCUAGUACCUCA ?
Outgoing: false

Incoming: Would you kindly repeat that for CUCUCUGGAUACUAUACAACCUACUACCUCA ?
Outgoing: true

Incoming: Same thing, different sequence: CGUCUGGAUACUAUACAACCUACUACCUGA
Outgoing: false

Incoming: // same read-out, input: GCUCUGGAUACUAUACAACCUACUAUCCUCA
Outgoing: true

Incoming: Please answer likewise for GGAGUGGUUACUAUAGAACCUACUACCUCA
Outgoing: true

Incoming: What do you get for GGAGUGAUACUAUACAACCUACUACCUCA ?
Outgoing: true

###

In this section, each of the sequences is paired with its reported pre-steady-state target cleavage rate.
Test system: MIWI (PIWIL1) piRISC loaded with piRNA #1 (30 nt);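 note: 1 nM active piRISC with 0.1 nM target library at 33 °C single turnover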
measurement-description: pre-steady-state target cleavage rate (min^-1); MIWI and MILI are mouse PIWI proteins and EfPiwi is from a freshwater sponge; tags in brackets are library labels; higher = faster piRNA-guided slicing of the target;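 note: 1 nM active piRISC with 0.1 nM target library at 33 °C single turnover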
measurement-setup: guide: piRNA #1 5'p-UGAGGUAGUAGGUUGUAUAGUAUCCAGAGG; auxiliary factor: 500 nM mouse GTSF1
Whole data set: some 6,200 sequences, median “pre-steady-state target cleavage rate” near 0.29, cut for the highest 2% near 2. For the sample, the highest values were picked, then their nearest neighbours and some sequences at random.
Please give only the number in your answer, with no unit.

>  <sequence>
GCUCAGGAUACAAUACAACCUACUACCUCA

>  <pre-steady-state target cleavage rate>
1.9

$$$$
>  <sequence>
GGAGACGAUACGUAUACAACCUACUACCUCA

>  <pre-steady-state target cleavage rate>
1.4

$$$$
>  <sequence>
CCUCAGGAUACUAAACAACCUACUACCUCA

>  <pre-steady-state target cleavage rate>
2.07

$$$$

Incoming: Field request: pre-steady-state target cleavage rate | item: GGUCUGCAUACUAUACAACCUACUACCACA
Outgoing: 0.7

Incoming: Now consider GGAGACCAUACUAAACAACCUACUUCCUCA .
Outgoing: 0.195

Incoming: Same question for GGAGUGGAUUCUAAACAACCUACUACCUCA please.
Outgoing: 0.994

Incoming: # iterate: GGUCAGGAUACUUUACAACCUACUACCUCA
Outgoing: 1.54

Incoming: Please give the result for CCUCUGGUUACAAUACAACCUACUACCUCA too.
Outgoing: 2.15

Incoming: Let us now turn to GGAGAGGGUACUAUACAACCUACUACCUCA
Outgoing: 1.17

Incoming: Entry to check: GGUCUGGAAACUAUUCAACCUACUACCUCA
Outgoing: 1.58

Incoming: Moving on to CCUCUGGAUACUUUACAACCUACUACCUGA
Outgoing: 0.715

Incoming: Do the same for GCUCUGGAUACUAUACAACCUACUACCUCC [g2:g29:cont:t1C] please
Outgoing: 2

Incoming: Request: CCUCUGCAUUCUAUACAACCUACUACCUCA
Outgoing: 2.13

Incoming: Also CCUCAGGAUACUAUACAACCUACUACCACA , if possible.
Outgoing: 2.43

Incoming: Request: GGUCUGGUUACUUUACAACCUACUACCUCA
Outgoing: 1.69

Incoming: One more sequence: GGUCUGGAUAGUAUACAACGUACUACCUCA
Outgoing: 0.319

Incoming: Param item: CCUCUGGAUACUAUACAACCUAACUACCUCA
Outgoing: 0.0333

Incoming: Same thing, different sequence: GGAGACGAUUCAAUACAACCUACUACCUCA
Outgoing: 0.502

Incoming: # iterate: GCUCUGCAUACUAUUCAACCUACUACCUCA
Outgoing: 1.93
